# TEST DETAILS: DUSP6 inhibitors restoring Erk phosphorylation by chemical complementation, primary imaging in DUSP6-transfected HeLa (AID 609)
# TEST CONDITIONS: HeLa MKP-3 transfected, phospho-Erk imaging KS statistic; measured here: nuclear pErk red intensity z-score; at 10 µM; stronger effect = higher value; cells stimulated with TPA for 15 min
Assign z-score to each entry below.
Keep it simple and answer with nothing but the number.

Inquiry: What value of measured z-score is listed for `CC1(C)CC(=O)C2=C(C1)OC(N)=C(C#N)[C@@]21C(=O)N(CC(N)=O)c2ccccc21` ?
Reply text: -0.037

Inquiry: What value of measured z-score is listed for COc1ccc2c(c1)C1(C)CC(C)(C)N2C(=O)N1c1ccccc1 (stereo unspecified) ?
Reply text: -0.582

Inquiry: What value of measured z-score is listed for COc1ccc(NC(=O)CSC2=C(C#N)C(c3ccco3)C3=C(CCCC3=O)N2)c(OC)c1 (stereo unspecified) ?
Reply text: 0.619

Inquiry: What value of measured z-score is listed for `CC(C)c1nc(N2CCOCC2)c(C#N)c2c1CCC2` ?
Reply text: -0.00414

Inquiry: What value of measured z-score is listed for `CCN1CCc2c(C#N)c(N3CCOCC3)nc(NCCO)c2C1` ?
Reply text: -1.24

Inquiry: What value of measured z-score is listed for `O=C(O)c1cc(-c2ccccc2)nc2ccccc12` ?
Reply text: -0.708

Inquiry: What value of measured z-score is listed for `O=C(c1ccccc1F)N1CCC(N2CCCCCC2)CC1` ?
Reply text: -0.289

Inquiry: What value of measured z-score is listed for `COCc1cc(=O)[nH]c(Nc2nc3ccccc3o2)n1` ?
Reply text: -0.93

Inquiry: What value of measured z-score is listed for CCc1ccc(NC(=O)CSC2=C(C#N)C(c3ccco3)C3=C(CCCC3=O)N2)cc1 (stereo unspecified) ?
Reply text: 0.462

Inquiry: What value of measured z-score is listed for O=S1CCCSC1c1cccnc1 (stereo unspecified) ?
Reply text: -1.2

Inquiry: What value of measured z-score is listed for `CCN1CCN(c2cc3c(cc2F)c(=O)c(C(=O)O)cn3C2CC2)CC1` ?
Reply text: 0.882
